These entries and their values trace back to patent US9221809B2.

test.target: IRAK4 (Homo sapiens (Human), UniProt Q9NWZ3)
Sequence (Q9NWZ3 whole entry): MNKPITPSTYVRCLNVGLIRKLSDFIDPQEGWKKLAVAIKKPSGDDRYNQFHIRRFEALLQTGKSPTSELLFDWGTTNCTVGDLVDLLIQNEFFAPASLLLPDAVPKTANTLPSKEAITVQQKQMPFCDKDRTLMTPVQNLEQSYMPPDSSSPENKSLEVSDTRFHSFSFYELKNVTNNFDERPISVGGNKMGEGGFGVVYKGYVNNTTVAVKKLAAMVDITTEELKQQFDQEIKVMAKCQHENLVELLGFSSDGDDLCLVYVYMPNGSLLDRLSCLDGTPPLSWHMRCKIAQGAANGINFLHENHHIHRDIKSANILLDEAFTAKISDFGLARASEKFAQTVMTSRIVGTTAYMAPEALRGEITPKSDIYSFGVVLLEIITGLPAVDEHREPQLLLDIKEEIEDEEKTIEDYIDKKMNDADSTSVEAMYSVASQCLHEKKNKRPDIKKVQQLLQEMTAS
assay: IRAK4 kinase activity, IMAP fluorescence polarization assay
Assay type: biochemical
measurement.conditions: 100 μM ATP; read-out: IC50
observation.type: IC50 (nM)
Hi! Could you send only the number? It should be in nM, unit omitted.

Study these solved cases before continuing.
Task item: Quick check: IC50 of CN(C)CCNc1nc(N2CCOCC2)[nH]c(=O)c1-c1ccc2ccccc2n1 [Example 272] ?
Reply: 1600

Task item: Next record, please: O=c1[nH]c(N2CC3(COC3)C2)nc(N[C@@H]2CCCNC2)c1-c1nc2ccccc2s1 [Example 317]
Reply: 25

Task item: Next record, please: O=c1[nH]c(N2CCC3CCCCC3C2)nc(N[C@@H]2CCCNC2)c1-c1nc2ccccc2s1 (some centres unmarked) [Example 313, trifluoroacetic acid]
Reply: 330

Task item: Next record, please: C[C@H]1C[C@@H](Nc2nc(N3CCOCC3)[nH]c(=O)c2-c2nc3ccccc3s2)CN1 [Example 209]
Reply: 359

Task item: Now consider CN1CCCC(Nc2nc(N3CCOCC3)[nH]c(=O)c2-c2nc3ccccc3s2)C1 (centres unmarked) [Example 252] .
Reply: 1200

---
Task item: Endpoint output: IC50 of CC1CCCN(c2nc(N[C@@H]3CCCNC3)c(-c3nc4ccccc4s3)c(=O)[nH]2)C1 (some centres unmarked) [Example 290] . Value?
Reply: 140

Task item: Here is the next molecule: CC(O)CNc1nc(N2CCOCC2)[nH]c(=O)c1-c1nc2ccccc2s1 (centres unmarked) [Example 265]
Reply: 780

Task item: Next record, please: O=c1[nH]c(N2CCOCC2)nc(N[C@@H]2CCCNC2)c1-c1csc(-n2cccn2)n1 [Example 217]
Reply: 82

---

test.target: IRAK4 (Homo sapiens (Human))
assay: IRAK4 kinase activity, IMAP fluorescence polarization assay
Type: biochemical
measurement.conditions: 100 μM ATP; read-out: IC50
The following compounds are listed with their measured pIC50 values.
# pIC50 = -log10(concentration in molar units)

Task item: Request: pIC50, test system IRAK4 (Homo sapiens (Human)), entry `O=c1[nH]c(N2CCOCC2)nc(N[C@H]2CNCC[C@@H]2F)c1-c1nc2ccccc2s1`
Reply: 7.85

Further cases:
Task item: Request - read-out pIC50 | tested on IRAK4 (Homo sapiens (Human)) | compound `O=c1[nH]c(N[C@H]2c3ccccc3C[C@@H]2O)nc(N[C@@H]2CCCNC2)c1-c1nc2ccccc2s1`
Reply: 5.52

Task item: Entry `CN(c1nc(N[C@@H]2CCCNC2)c(-c2nc3ccccc3s2)c(=O)[nH]1)[C@H](CO)c1ccccc1` please
Reply: 6.60

---

test.target: IRAK4 (Homo sapiens (Human))
assay: IRAK4 kinase activity, IMAP fluorescence polarization assay
Assay type: biochemical
measurement.conditions: 100 μM ATP; read-out: IC50
observation.type: IC50
Kindly format the answer as number then unit.

Task item: Param readout= IC50; system= IRAK4 (Homo sapiens (Human)); entry= `O=c1[nH]c(N2CCOCC2)nc(NCCN2CCCCC2)c1-c1ccc2ccccc2n1` ; returns value.
Reply: 2800 nM

Task item: What do you have for `O=c1[nH]c(N2CCOCC2)nc(NCCN2CCNCC2)c1-c1nc2ccccc2s1` ?
Reply: 55 nM

Task item: Cool, now `CC(=O)NCCNc1nc(N2CCOCC2)[nH]c(=O)c1-c1nc2ccccc2s1`
Reply: 8200 nM

Task item: # repeat for CCN1CCCC1CNc1nc(N2CCOCC2)[nH]c(=O)c1-c1ccc2ccccc2n1 (stereo not shown)
Reply: 1600 nM

Task item: Moving on to the next compound: CCN1CCCC1CNc1nc(N2CCOCC2)[nH]c(=O)c1-c1nc2ccccc2s1 (stereo not shown)
Reply: 2000 nM

More entries:
Task item: Param readout= IC50; system= IRAK4 (Homo sapiens (Human)); entry= `O=c1[nH]c(N2CCOCC2)nc(N[C@@H]2CCCNC2)c1-c1csc(-c2ccccc2)n1` ; returns value.
Reply: 7 nM

Task item: Then `CC1CCN(c2nc(N[C@@H]3CCCNC3)c(-c3nc4ccccc4s3)c(=O)[nH]2)CC1` ?
Reply: 69 nM

Task item: `O=c1[nH]c(N2CC3CCC(C2)O3)nc(N[C@@H]2CCCNC2)c1-c1nc2ccccc2s1` , same question.
Reply: 43 nM

Task item: How about O=c1[nH]c(N2CCOCC2)nc(NCC2CCCCN2)c1-c1nc2ccccc2s1 (stereo not shown) ?
Reply: 1600 nM

Task item: Queued: `O=c1[nH]c(N2CCOCC2)nc(NC2CNC2)c1-c1nc2ccccc2s1`
Reply: 300 nM

Task item: Please answer likewise for `O=c1[nH]c(C2CCN(C3CCOCC3)CC2)nc(N[C@@H]2CCCNC2)c1-c1nc2ccccc2s1`
Reply: 440 nM

Task item: Could you do the same for `NC(=O)CNc1nc(N2CCOCC2)[nH]c(=O)c1-c1nc2ccccc2s1` , please?
Reply: 3900 nM

Task item: Another compound to check: `O=c1[nH]c(N2CCC(CO)CC2)nc(N[C@@H]2CCCNC2)c1-c1nc2ccccc2s1`
Reply: 62 nM

Task item: # repeat for `O=c1[nH]c(C2CCN(c3ncccn3)CC2)nc(N[C@@H]2CCCNC2)c1-c1nc2ccccc2s1`
Reply: 260 nM

Task item: Now the same for `O=c1[nH]c(C2CCN(S(=O)(=O)C3CC3)CC2)nc(N[C@@H]2CCCNC2)c1-c1nc2ccccc2s1`
Reply: 170 nM

Task item: `O=c1[nH]c(N2CC[C@@H](O)C2)nc(N[C@@H]2CCCNC2)c1-c1nc2ccccc2s1` , same question.
Reply: 17 nM

---

test.target: UniProt:Q9NWZ3
assay: IRAK4 kinase activity, IMAP fluorescence polarization assay
Type: biochemical
measurement.conditions: unit inferred; 100 μM ATP; read-out: IRAK4 IC50
observation.type: IC50 (nM)
Numbers only; they are read as nM.

Task item: Item `O=c1[nH]c(N2CCC(c3cnccn3)CC2)nc(N[C@@H]2C[C@H](CO)[C@@H](O)[C@H]2O)c1-c1nc2ccccc2s1` with UniProt:Q9NWZ3 - IC50?
Reply: 12.5

Continuing:
Task item: Identify the measured IC50 of `O=C1NC2(CCN(c3nc(N[C@@H]4C[C@H](CO)[C@@H](O)[C@H]4O)c(-c4nc5ccccc5s4)c(=O)[nH]3)CC2)CO1` for UniProt:Q9NWZ3.
Reply: 196

Task item: Now consider `CS(=O)(=O)C1CN(c2nc(N[C@@H]3C[C@H](CO)[C@@H](O)[C@H]3O)c(-c3nc4ccccc4s3)c(=O)[nH]2)C1` .
Reply: 17.9

---

test.target: IRAK4 (Homo sapiens (Human))
assay: IRAK4 kinase activity, IMAP fluorescence polarization assay
Format: biochemical
measurement.conditions: 100 μM ATP; read-out: IRAK4 IC50
Classify by IC50. Ranges: b0 (below 30 nM), b1 (30 nM to below 80 nM), b2 (80 nM or more)

Worked set:
Task item: // bin(item) where item = `O=c1[nH]c(N2CCN(c3cccc(Cl)n3)CC2)nc(N[C@@H]2CCCNC2)c1-c1nc2ccccc2s1`
Reply: b0

Task item: Another compound to look at: `O=c1[nH]c(N2CCN(c3ccc(Cl)cn3)CC2)nc(N[C@@H]2CCCNC2)c1-c1nc2ccccc2s1`
Reply: b0

Task item: Okay, and CC1CN(c2nc(N[C@@H]3CCCNC3)c(-c3nc4ccccc4s3)c(=O)[nH]2)CCO1 (some centres unmarked) ?
Reply: b2

Task item: Try this compound too: `COC1(C)CN(c2nc(N[C@@H]3CCCNC3)c(-c3ccc4ccccc4n3)c(=O)[nH]2)C1`
Reply: b0

New cases:
Task item: Class label required: `CN(C)[C@@H]1CCN(c2nc(N[C@@H]3CCCNC3)c(-c3ccc4ccccc4n3)c(=O)[nH]2)C1`
Reply: b1

Task item: Try the compound `O=c1[nH]c(N2CCC[C@H]2CF)nc(N[C@@H]2CCCNC2)c1-c1ccc2ccccc2n1`
Reply: b2

Task item: Subsequent entry: `C[C@H]1COCCN1c1nc(N[C@@H]2CCCNC2)c(-c2nc3ccccc3s2)c(=O)[nH]1`
Reply: b2

Task item: Another compound to check: `O=c1[nH]c(N2CCOCC2)nc(N[C@@H]2CCCNC2)c1-c1nc(-c2ccc(C(F)(F)F)cn2)cs1`
Reply: b2

Task item: `O=c1[nH]c(N2CCN(c3nnc(C4CC4)o3)CC2)nc(N[C@@H]2CCCNC2)c1-c1nc2ccccc2s1` , same question.
Reply: b0

Task item: Could you do the same for `COc1ccc(N2CCN(c3nc(N[C@@H]4CCCNC4)c(-c4nc5ccccc5s4)c(=O)[nH]3)CC2)nc1` , please?
Reply: b0

Task item: Okay, and `O=c1[nH]c(N2CCN(c3ccc4c(c3)OCO4)CC2)nc(N[C@@H]2CCCNC2)c1-c1nc2ccccc2s1` ?
Reply: b0
